Entry source: ChEMBL document CHEMBL1144683

System: Jurkat
Assay: Antiproliferative activity against human Jurkat E6-1 cells by MTT assay
Format: functional, cell-based
READOUT NAME: IC50
Give the figure together with its unit, number first.

Below: 4 compounds and their reported IC50.
# SMILES STRUCTURE, MEASUREMENT TARGET, IC50
measured = [
    ("CC(=O)N[C@H]1C[C@@H](C(=O)N[C@H]2C[C@@H](C(N)=O)N(C(=O)CNC(=O)c3c4ccccc4nc4c3[nH]c3ccccc34)C2)N(C(=O)CNC(=O)c2c3ccccc3nc3c2[nH]c2ccccc23)C1", "Jurkat", "37 µM"),
    ("CC(=O)N[C@H]1C[C@@H](C(=O)N[C@H]2C[C@@H](C(N)=O)N(C(=O)CNC(=O)c3c4ccccc4nc4ccccc34)C2)N(C(=O)CNC(=O)c2c3ccccc3nc3c2[nH]c2ccccc23)C1", "Jurkat", "120 µM"),
    ("O=C(O)CNC(=O)c1c2ccccc2nc2c1[nH]c1ccccc12", "Jurkat", "12 µM"),
    ("CC(=O)N[C@H]1C[C@@H](C(=O)N[C@H]2C[C@@H](C(=O)N[C@H]3C[C@@H](C(N)=O)N(C(=O)CNC(=O)c4c5ccccc5nc5c4[nH]c4ccccc45)C3)N(C(=O)CNC(=O)c3c4ccccc4nc4ccccc34)C2)N(C(=O)CNC(=O)c2c3ccccc3nc3ccccc23)C1", "Jurkat", "86 µM"),
]

Pending compound:
## Task Item CC(=O)N[C@H]1C[C@@H](C(=O)N[C@H]2C[C@@H](C(N)=O)N(C(=O)CNC(=O)c3c4ccccc4nc4c3[nH]c3ccccc34)C2)N(C(=O)CNC(=O)c2c3ccccc3nc3ccccc23)C1 has what recorded IC50?
## Result 92 µM

* * *

pIC50 overview
Test system: Jurkat
Test: Antiproliferative activity against human Jurkat E6-1 cells by MTT assay
Assay type: functional, cell-based
Expect pIC50 as a plain number equal to -log10 of the molar concentration.

# SMILES STRUCTURE, RESULT
measured = [
    ("CC(=O)N[C@H]1C[C@@H](C(=O)N[C@H]2C[C@@H](C(=O)N[C@H]3C[C@@H](C(N)=O)N(C(=O)CNC(=O)c4c5ccccc5nc5ccccc45)C3)N(C(=O)CNC(=O)c3c4ccccc4nc4ccccc34)C2)N(C(=O)CNC(=O)c2c3ccccc3nc3c2[nH]c2ccccc23)C1", 3.89),
]

## Task Item COC(=O)CNC(=O)c1c2ccccc2nc2c1[nH]c1ccccc12 has what recorded pIC50?
## Result 5.10

## Task Request: CC(=O)N[C@H]1C[C@@H](C(=O)N[C@H]2C[C@@H](C(=O)N[C@H]3C[C@@H](C(N)=O)N(C(=O)CNC(=O)c4c5ccccc5nc5ccccc45)C3)N(C(=O)CNC(=O)c3c4ccccc4nc4c3[nH]c3ccccc34)C2)N(C(=O)CNC(=O)c2c3ccccc3nc3ccccc23)C1
## Result 4.06

## Task Request: CC(=O)N[C@H]1C[C@@H](C(=O)N[C@H]2C[C@@H](C(=O)N[C@H]3C[C@@H](C(N)=O)N(C(=O)CNC(=O)c4c5ccccc5nc5c4[nH]c4ccccc45)C3)N(C(=O)CNC(=O)c3c4ccccc4nc4ccccc34)C2)N(C(=O)CNC(=O)c2c3ccccc3nc3c2[nH]c2ccccc23)C1
## Result 3.95

## Task Request: CC(=O)N[C@H]1C[C@@H](C(=O)N[C@H]2C[C@@H](C(=O)N[C@H]3C[C@@H](C(N)=O)N(C(=O)CNC(=O)c4c5ccccc5nc5c4[nH]c4ccccc45)C3)N(C(=O)CNC(=O)c3c4ccccc4nc4c3[nH]c3ccccc34)C2)N(C(=O)CNC(=O)c2c3ccccc3nc3ccccc23)C1
## Result 3.99

## Task Request: CC(=O)N[C@H]1C[C@@H](C(=O)N[C@H]2C[C@@H](C(N)=O)N(C(=O)CNC(=O)c3c4ccccc4nc4ccccc34)C2)N(C(=O)CNC(=O)c2c3ccccc3nc3ccccc23)C1
## Result 3.83
